target: porcine SDH (Sus scrofa, UniProt A5GZW8+D0VWV4+Q007T0+Q0QF01)
Sequence (Q0QF01 43-664): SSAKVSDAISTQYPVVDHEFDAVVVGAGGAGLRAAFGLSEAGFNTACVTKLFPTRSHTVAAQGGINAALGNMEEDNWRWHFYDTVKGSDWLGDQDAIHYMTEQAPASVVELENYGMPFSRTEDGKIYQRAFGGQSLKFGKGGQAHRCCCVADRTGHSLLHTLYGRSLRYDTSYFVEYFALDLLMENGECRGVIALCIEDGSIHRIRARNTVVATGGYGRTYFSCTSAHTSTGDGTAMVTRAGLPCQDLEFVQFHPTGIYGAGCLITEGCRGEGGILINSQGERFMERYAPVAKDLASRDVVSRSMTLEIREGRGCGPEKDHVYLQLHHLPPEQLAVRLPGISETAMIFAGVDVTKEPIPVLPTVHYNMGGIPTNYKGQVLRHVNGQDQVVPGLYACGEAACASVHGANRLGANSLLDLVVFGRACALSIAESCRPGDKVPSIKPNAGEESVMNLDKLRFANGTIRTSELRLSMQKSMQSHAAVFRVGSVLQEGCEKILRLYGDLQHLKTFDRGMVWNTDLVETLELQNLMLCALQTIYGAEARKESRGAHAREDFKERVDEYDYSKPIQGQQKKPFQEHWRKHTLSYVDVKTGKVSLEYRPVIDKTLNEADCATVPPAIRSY
Sequence (Q007T0 29-280): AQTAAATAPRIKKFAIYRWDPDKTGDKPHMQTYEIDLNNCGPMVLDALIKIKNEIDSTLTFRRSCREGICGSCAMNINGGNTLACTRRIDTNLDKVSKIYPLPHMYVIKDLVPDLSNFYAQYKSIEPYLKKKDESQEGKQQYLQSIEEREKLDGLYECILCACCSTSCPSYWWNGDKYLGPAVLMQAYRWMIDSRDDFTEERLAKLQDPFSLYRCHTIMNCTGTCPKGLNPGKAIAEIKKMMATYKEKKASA
Sequence (D0VWV4 30-169): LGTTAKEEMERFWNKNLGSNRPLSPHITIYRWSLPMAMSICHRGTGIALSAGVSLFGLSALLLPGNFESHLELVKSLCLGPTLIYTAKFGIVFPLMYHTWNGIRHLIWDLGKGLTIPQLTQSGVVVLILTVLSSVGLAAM
Sequence (A5GZW8 37-159): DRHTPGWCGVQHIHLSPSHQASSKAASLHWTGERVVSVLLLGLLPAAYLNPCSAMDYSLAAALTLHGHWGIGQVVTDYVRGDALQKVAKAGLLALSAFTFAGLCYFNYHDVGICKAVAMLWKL
protocol_details: SDH enzymatic inhibition assay
Assay type: biochemical, swine
reported_endpoint: pIC50
Just the number, please; pIC50 means minus log10 of the concentration in mol/L.

Recorded pIC50 (molecule `O=C(Nc1ccccc1-c1ccc(Cl)cc1)c1cccnc1Cl` ): 5.78
